System: Hs-578T
assay_procedure: NCI tumour cell line growth inhibition, 48 h
Active and inactive are the calls of the source. Rule as the data show it: active = GI50 up to about 1.1 µM and inactive = higher.
assay_metric: GI50

Some solved entries appear below for comparison.
CCCCCCNCCCNc1c2ccccc2nc2cccc([N+](=O)[O-])c12: 0.0448 µM (active)
CN(C)c1ccc2cc3ccc(N(C)C)cc3nc2c1: 2.5 µM (inactive)
COC(=O)C1(Cc2ccccc2)Cc2ccccc2C1=O (centres undefined): 61.1 µM (inactive)
O=c1cnn(C/C=C/CBr)c(=O)[nH]1: 33 µM (inactive)

Tell us which GI50 value is on record for "COC(=O)[C@@H]1C[C@@H]2c3ccccc3N(S(=O)(=O)c3ccccc3)[C@@H]2N1C(=O)OC"
> 100 µM (inactive)

Annotate the compound COc1c2c(cc3c1C1(O)Cc4ccc5c(c4C[N+]1(C)CC3)OCO5)OCO2 (centres undefined) with its measured GI50.
> 100 µM (inactive)

Answer with the recorded GI50 for the compound listed here: "O=C1c2c(Br)sc(Br)c2[C@@H](O)[C@H]1O"
23.1 µM (inactive)

Note GI50 for the compound shown: "CCOC(=O)NC(=S)NN(C)C1=NCC(C)(C)S1"
> 100 µM (inactive)

Tell us which GI50 value is on record for CC1OC(OC2C(O[C@H]3CC[C@@]4(C)C(=CC[C@H]5[C@@H]6C[C@@H]7O[C@]8(CC[C@H](C)CN8)[C@@H](C)[C@@H]7[C@@]6(C)CC[C@@H]54)C3)OC(CO)C(O)C2OC2OC(CO)C(O)C(O)C2O)C(O)C(O)C1O (some centres undefined)
14.7 µM (inactive)

====

Tested on: T47D
assay_procedure: NCI tumour cell line growth inhibition, 48 h
Active and inactive are the calls of the source. Rule as the data show it: active = GI50 up to about 1.1 µM and inactive = higher.
Recorded GI50 for the following molecules

The cases that follow already have their GI50 on record.
CCOC(=O)C(C(N)=O)C1=Nc2cc([N+](=O)[O-])ccc2N/C1=C\C(=O)c1ccc(C)cc1 (stereo not given): 60.1 µM (inactive)
O=c1[nH]c(=O)n(C2C(CO)OC(CO)C2O)cc1F (stereo not given): > 100 µM (inactive)
O=c1[nH]cnc2c(C3OC(CO)C(O)C3O)c[nH]c12 (stereo not given): > 100 µM (inactive)

Tell me its GI50 on T47D: O=C1NC(N2CCCC(CO)C2)=N/C1=C\c1cccs1 (stereo not given)
> 100 µM (inactive)

Tell me GI50 of CC(=O)N1C(Nc2ccccc2)CCN1c1ccccc1 (stereo not given) when tested on T47D.
> 10 µM (inactive)

Give T47D GI50 for the following molecule: "CCOC(=O)/C(C#N)=C(/NNc1ccccc1)c1ccncc1C(=O)O"
8.17 µM (inactive)

State GI50 (T47D) of CCCCCC(/C=N/NC(N)=S)C(O)(C(F)(F)F)C(F)(F)F (stereo not given) .
> 10 µM (inactive)

Enter measured GI50, system T47D, for the molecule shown: "O=C(Nc1ccc(Cl)cc1)C(=O)C1=C(O)c2ccccc2OC1"
> 100 µM (inactive)

State recorded GI50 with T47D, entry "O=[N+]([O-])c1ccc2[nH]c(-c3ccc(Cl)cc3)nc2c1" , no comment.
24.6 µM (inactive)

Under T47D, report GI50 for "CC(C)CCC[C@@H](C)[C@H]1CC[C@H]2C3=C[C@H](OS(=O)(=O)O)[C@@]4(O)C[C@@H](O)CC[C@]4(C)[C@@]3(O)CC[C@]12C"
83.6 µM (inactive)

====

Test system: RPMI-8226
assay_procedure: NCI tumour cell line growth inhibition, 48 h
Calls of active or inactive are those of the source. Cut-off read from the data, not from the text of the source: active = GI50 up to about 1.1 µM and inactive = higher.
Result category, one only: active, inactive

The following molecules have reported results that may help.
CCCCCCCCCCCCCCCC(=O)N[C@H]1CCc2cc(OC)c(OC)c(OC)c2-c2ccc(SC)c(=O)cc21: inactive
O=[N+]([O-])C(/C(Cl)=C(\Cl)Br)=C(/Cl)SCc1ccccc1: inactive
CCCCCCNCCCNc1c2ccccc2nc2cccc([N+](=O)[O-])c12: active
COC(=O)/C(=N\Nc1nnc(C)n1N)C(C#N)c1ccccc1 (stereo unspecified): inactive
CC1CCC2C(C)C(OC(=O)CCC(=O)O)OC3OC4(C)CCC1C32OO4 (stereo unspecified): active

Test call, this molecule: N=C(N)NCCCC(NC(=O)OCCCCCn1ccc(N)nc1=O)C(=O)O (stereo unspecified)
inactive

====

Tested on: OVCAR-5
assay_procedure: NCI tumour cell line growth inhibition, 48 h
Active and inactive are the calls of the source. Cut-off read from the data, not from the text of the source: active = GI50 up to about 1.1 µM and inactive = higher.
Pick one and only one: active, inactive

Below, 4 compounds whose answers are already recorded.
CC(=O)OC12COC1CC(O)C1(C)C(=O)C(O)C3=C(C)C(O)CC(O)(C(OC(=O)c4ccccc4)C21)C3(C)C (centres undefined): inactive
Cc1c(C)c(CC(=O)N2CC2)c(C)c(C)c1CC(=O)N1CC1: inactive
CC(C)(C)c1cc2c(O)c(c1)Cc1cc(C(C)(C)C)cc(c1O)Cc1cc(C(C)(C)C)cc(c1O)Cc1cc(C(C)(C)C)cc(c1O)Cc1cc(C(C)(C)C)cc(c1O)Cc1cc(C(C)(C)C)cc(c1O)Cc1cc(C(C)(C)C)cc(c1O)Cc1cc(C(C)(C)C)cc(c1O)C2: inactive
CC1=NCCc2cc3[nH]c4ccccc4c3cc21: inactive

Please state the recorded outcome for this compound: "COc1cc(/C=C(\C#N)C(N)=C(C#N)C#N)cc(O)c1O"
inactive

Write down the call the test reported for this compound. Item: CC(C)CC1NC(=O)C(C(C)C)NC(=O)CC(C)COC(=O)C(CC(C)C)N(C)C(=O)C(C(C)C)NC(=O)C(C(C)C)OC1=O (centres undefined)
inactive

Name the outcome recorded for "CCN(CC)C(=S)SC1C(=O)NC(=O)NC1=O" in the assay.
inactive

Per the assay record, what outcome was assigned to "CCN(CC)c1ccc(/N=N/c2ccc(-c3nc4cccnc4o3)cc2)cc1" ?
inactive

Which outcome was entered for the compound O=c1[nH]c(=O)n(C2CC(O)C(CO)O2)c2nc3ccc4cc5ccccc5cc4c3nc12 (centres undefined) in this test?
inactive

# fetch the recorded call for "C[C@]12CC/C(=N\O)C=C1CC[C@@H]1[C@@H]2CC[C@]2(C)C(=N/O)/C(=C/c3ccncc3)C[C@@H]12" here
inactive

Fill in: this test's call for "Cc1ccc2c(O)cc(-c3ccc4ccccc4c3)nc2n1" is ___
inactive

Recorded test outcome, item "O=C(O)CCNc1[nH]cnc2ncnc1-2"
inactive

====

Tested on: MDA-N
assay_procedure: NCI tumour cell line growth inhibition, 48 h
Active and inactive are the calls of the source. Cut-off read from the data, not from the text of the source: active = GI50 up to about 1.1 µM and inactive = higher.
assay_metric: GI50

Give the reported value of GI50 for this record: CC1CCC(O)(C(C)(C(=O)O)c2ccccc2)CC1 (stereo not given)
> 100 µM (inactive)

====

Test system: Malme-3M
assay_procedure: NCI tumour cell line growth inhibition, 48 h
The source made the active and inactive calls. No stated cut-off is given here; in the data, active = GI50 up to about 1.1 µM and inactive = higher.
Your reply should match one of these outcome classes. YES = active, NO = inactive

Nc1ccc2c(=O)cc(-c3ccc(Br)s3)[nH]c2n1: NO

What call does the record list for "C[C@]12CC/C(=N\O)C=C1CC[C@@H]1[C@@H]2CC[C@]2(C)C(=N/O)/C(=C/c3ccncc3)C[C@@H]12" ?
NO

What was the test verdict on "CC(C)(C)c1cc2c(O)c(c1)Cc1cc(C(C)(C)C)cc(c1O)Cc1cc(C(C)(C)C)cc(c1O)Cc1cc(C(C)(C)C)cc(c1O)Cc1cc(C(C)(C)C)cc(c1O)Cc1cc(C(C)(C)C)cc(c1O)Cc1cc(C(C)(C)C)cc(c1O)Cc1cc(C(C)(C)C)cc(c1O)C2" ?
NO

====

System: SK-MEL-5
assay_procedure: NCI tumour cell line growth inhibition, 48 h
Calls of active or inactive are those of the source. No stated cut-off is given here; in the data, active = GI50 up to about 1.1 µM and inactive = higher.
Result category, one only: active, inactive

// below: answered compounds
Nc1nn2c(C(Br)Br)cc(C(Br)Br)nc2c1[N+](=O)[O-]: inactive
C1CSC(=[N+]2CC[N+](=C3SCCS3)CC2)S1: inactive
COc1cc2cc(C(=O)N3CC(CCl)c4ccc([N+](C)(C)Cc5ccccc5[N+](=O)[O-])cc43)[nH]c2c(OC)c1OC (stereo not given): active

Record lookup: outcome of this test for CN(C)C1=Nc2ccccc2C(=S)N2CSCC12 (stereo not given) ?
inactive

Field: outcome | Entry: "CC(C)C(=O)N1Cc2cc(Cl)cc(Cl)c2OC(=O)c2ccccc21"
inactive

====

Reported GI50 by item:
System: MDA-MB-435
assay_procedure: NCI tumour cell line growth inhibition, 48 h
Activity calls are given as the source filed them. Cut-off read from the data, not from the text of the source: active = GI50 up to about 1.1 µM and inactive = higher.

Sample answers from the record:
C=C1C(=O)OC2/C=C(\COC(C)=O)CCC(OC(C)=O)C3=CC(OC3=O)C12 (stereo unspecified): 10.6 µM (inactive)
CCc1nc(N)nc(N)c1-c1ccc(NCCN)c([N+](=O)[O-])c1: 7.13 µM (inactive)
O=c1[nH]c(=O)n(C2CC(O)C(CO)O2)c2nc3ccc4cc5ccccc5cc4c3nc12 (stereo unspecified): > 100 µM (inactive)

Look up GI50 of "COc1ccc(NC(=O)CC(=O)n2nc(C)c(/N=N/c3ccc(C)c(C)c3)c2C)cc1" and report it.
> 100 µM (inactive)

Given "Cn1c(-c2cccs2)cc(-c2ccccc2)c1-c1cccs1" , respond with its GI50.
> 100 µM (inactive)

Name the recorded GI50 of the item CC1C(c2ccccc2)O[B-](F)(c2ccccc2)[NH+]1C (stereo unspecified) in your answer.
> 100 µM (inactive)

Given the compound COC(=O)C1C(=O)CC(C)(O)C(C(=O)OC)C1c1ccc(N(C)C)cc1 (stereo unspecified) , write its reported GI50.
> 100 µM (inactive)

Name the recorded GI50 of the item "CCOC(=O)CCCN" in your answer.
> 100 µM (inactive)
